The reported measurements were obtained from PubChem BioAssay (Tox21).

Test: qHTS assay to identify small molecule antagonists of the estrogen related receptor (ERR) signaling pathway from Tox21 library (AID 1224848); also: nearly all actives have a fitted effect of over 50% in size
Details: ERR reporter cell line, luciferase antagonist mode, 18 h; series mostly up to 92.4 µM
Inconclusive results are not listed. Calls of active or inactive are those of the source. Calls follow the shape of the dose curve; as a rule, active = well fitted inhibition curve with a large enough effect in the repeat runs; inconclusive = weak or mixed curves; inactive = no such curve, though single readings can be large or run the other way.
Reply using exactly one outcome from true (1) (active), false (0) (inactive)

molecule: CC(=O)N(O)CCCCCNC(=O)CCC(=O)N(O)CCCCCNC(=O)CCC(=O)N(O)CCCCCN
assigned category: true (1)

### Prompt For CC/C(=C\C(=N/O)C(N)=O)C(C)[N+](=O)[O-] (configuration not stated) , what call appears in the results of this test?
### Response false (0)

### Prompt Record request — test call for C=CC(=O)OCCOC(=O)CCC(=O)O
### Response false (0)

### Prompt Lab log entry: CC(=O)[C@@]1(O)CC[C@H]2[C@@H]3C[C@H](C)C4=CC(=O)CC[C@]4(C)[C@H]3CC[C@@]21C — outcome as called in the assay?
### Response true (1)

### Prompt Write down the call the test reported for this molecule. Item: CCN(CC)CCNC(C(=O)OCCC(C)C)c1ccccc1 (configuration not stated)
### Response false (0)

### Prompt Record lookup: outcome of this test for CCN(CC)C(C)=O ?
### Response false (0)

### Prompt Hello, I am checking results. What call was entered for N=C(N=C(N)N)N1CCOCC1 ?
### Response false (0)

### Prompt Recorded call for Cc1cccc(Oc2ccccc2)c1 ?
### Response true (1)

### Prompt Could you kindly confirm the outcome this assay logged for C[C@H](CCC(=O)O)[C@H]1CC[C@H]2[C@@H]3[C@H](O)C[C@@H]4C[C@H](O)CC[C@]4(C)[C@H]3CC[C@]12C ?
### Response false (0)

### Prompt Give the logged outcome of this assay for the following molecule: OCC1CC2CC1C1CCC(CO)C21 (configuration not stated)
### Response false (0)

### Prompt Which outcome was entered for the molecule Oc1ccc(O)c2c(O)cccc12 in this test?
### Response false (0)

### Prompt Dear colleague, could you share the recorded outcome for CCOc1ccc(NC(=O)CC(C)=O)cc1 when you have a moment?
### Response false (0)
